B1: OR4K15 (parent)
chain: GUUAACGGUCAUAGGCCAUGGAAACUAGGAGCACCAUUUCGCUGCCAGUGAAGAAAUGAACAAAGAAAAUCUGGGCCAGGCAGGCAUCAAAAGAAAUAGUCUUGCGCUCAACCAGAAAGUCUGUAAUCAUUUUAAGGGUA

Variants of: B1
Assay: self-cleavage, relative activity (ratio to wild type); higher = more cleavage; in vitro, sequencing; the parent is a self-cleaving ribozyme
Item-by-item account of self-cleavage
No unit in the answer, please; the number alone is enough.

Consider the following illustrative entries.
>>> assay_result("GUUAACGGUCAUAGGCCAUGGAAACUAGGAGCACCAUUUCGCUGCCAGUGAAGAAAUGAACAAAGAAAAUCUGGGCCAGGCAGGCAUCAAUAGAAAUAGUCUCGCGCUCAACCAGAAAGUCUGUAAUCAUUUUAAGGGUA [A91U U103C]")
0.51
>>> assay_result("GUUAACGGUCAUAGGCCAUGGAACCUAGGAGCACCAUUUCGCUGCCAGUGAAGAAAUGAACAAAGAAAAUCUGGGCCAGGCAGGCAUCAAAAGAUAUAGUCUUGCGCUCAACCAGAAAGUCUGUAAUCAUUUUAAGGGUA [A24C A95U]")
2.22

Prompt line: Complete the entry with self-cleavage for GUUAACGGUCAUAGGCCAUGGAAACUAGGAGCACCAUUUCGCUGCCAGUGAAGAAAUGAACAAAGAAAAUCUGGGCCAGGCAGGCAUCAAAAGAAAUAGUCUUGCGCUCAACCAGAAUGUCUGUGAUCAUUUUAAGGGUA [A118U A125G]
Response line: 0.86

Prompt line: Complete the entry with self-cleavage for GUUAACGGUCAUAGGCCAUGGAAACUAGGAGCACCAUUUCGCUGCCAGUGAAGAAAAGGACAAAGAAAAUCUGGGCCAGGCAGGCAUCAAAAGAAAUAGUCUUGCGCUCAACCAGAAAGUCUGUAAUCAUUUUAAGGGUA [U57A A59G]
Response line: 0.5

Prompt line: Complete the entry with self-cleavage for GUUAACGGUCAUAGGCCAUGGAAACUAGGAGCACCAUUUCGCUGCCAGUGUAGAAAUGAACAAAGAAAAUCUGGGCCAGGCAGGCAUCAAAAGAAAUAGUCUUGCGCUCAACCAGAAAGUCUGUAAACAUUUUAAGGGUA [A51U U127A]
Response line: 1.75

Prompt line: Complete the entry with self-cleavage for GUUAACGGUCAUAGGGCAUGGAAACUAGGAGCACCAUUUCGCUGCCAGCGAAGAAAUGAACAAAGAAAAUCUGGGCCAGGCAGGCAUCAAAAGAAAUAGUCUUGCGCUCAACCAGAAAGUCUGUAAUCAUUUUAAGGGUA [C16G U49C]
Response line: 0.92

Prompt line: Complete the entry with self-cleavage for GUUAACGGUCAUAGGCCAUGGAAACUAGGAGCUCCAUUUCGCUGCCAGUGAAGAAAUGAACUAAGAAAAUCUGGGCCAGGCAGGCAUCAAAAGAAAUAGUCUUGCGCUCAACCAGAAAGUCUGUAAUCAUUUUAAGGGUA [A33U A62U]
Response line: 2.26

Prompt line: Complete the entry with self-cleavage for GUUAACGGUCAUAGGCCAUGGAAACUAGGAGCACCAUUUCGCUGCCAGUGAAGUAAUGAACAAAGAAAAUCUGGGCCAGGCAGGCAUCAAAAGAAAUAGUCUUGCGCUCAACCAGGAAGUCUGUAAUCAUUUUAAGGGUA [A54U A116G]
Response line: 0.83

Prompt line: Complete the entry with self-cleavage for GUUAACGGUCAUAGGCCAUGGAAACUAGGAGCACCAUUUCGCUGCCAGUGAAGAAAUGAACAAAGAAAAUCUGGGCCAGGCAGGCAUCAAAAGAAAUAGUAUUGCGCUCAACCAGAGAGUCUGUAAUCAUUUUAAGGGUA [C101A A117G]
Response line: 0.13

Prompt line: Complete the entry with self-cleavage for GUUAACGGUCAUAGGCCAUGGAAACUAGGAUCACCAUUUCGCUGCCAGUGAAGAAAUGAGCAAAGAAAAUCUGGGCCAGGCAGGCAUCAAAAGAAAUAGUCUUGCGCUCAACCAGAAAGUCUGUAAUCAUUUUAAGGGUA [G31U A60G]
Response line: 1.37

Prompt line: Complete the entry with self-cleavage for GUUAACGGUCAUAGGUCAUGGAAACUAGGAGCACCAUUUCGCUGCCAGUGAAGAAAUGAACAAAGAAAAUCUGGGCCAGGCAGGCAUCAAAAGAAAUAGUCUUGCGCUCAACCAGAAAGUCCGUAAUCAUUUUAAGGGUA [C16U U122C]
Response line: 1.91
